assay-target: human S1P1 (EDG-1) (Homo sapiens (Human), UniProt P21453)
Sequence (P21453 whole entry): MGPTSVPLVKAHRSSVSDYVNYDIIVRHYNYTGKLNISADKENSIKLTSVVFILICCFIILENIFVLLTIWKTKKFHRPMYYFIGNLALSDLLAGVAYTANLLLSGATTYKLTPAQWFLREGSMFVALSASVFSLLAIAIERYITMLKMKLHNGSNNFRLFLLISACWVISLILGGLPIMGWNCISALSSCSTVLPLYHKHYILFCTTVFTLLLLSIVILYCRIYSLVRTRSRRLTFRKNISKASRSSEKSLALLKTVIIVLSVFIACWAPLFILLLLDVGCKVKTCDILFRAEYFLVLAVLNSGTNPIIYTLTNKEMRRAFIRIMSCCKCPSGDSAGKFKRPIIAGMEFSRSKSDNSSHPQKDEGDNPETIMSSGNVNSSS
pIC50: −log10 of the molar value. Counter-ions that a name gives are not always drawn.

- compound: "Cc1ccc2c(c1OCCCc1ccccc1)CCN(CCCC(=O)O)CC2"
  pIC50: "< 5.00"
- compound: "CCCCCCCCOc1cccc2c1CCN(CCCC(=O)O)CC2"
  pIC50: "< 5.00"
- compound: "O=C(O)C1CN(C2CCc3cccc(OCCCc4ccccc4)c3C2)C1 (centres unmarked)"
  pIC50: "< 5.00"
- compound: "O=C(O)CCCN1CCc2cccc(OCCc3cccc4ccccc34)c2CC1"
  pIC50: "< 5.00"
- compound: "O=C(O)CCCN1CCc2cccc(OCCOc3ccc(C(F)(F)F)cc3)c2CC1"
  pIC50: "< 5.00"
- compound: "O=C(O)CCCCN1CCCc2c(cccc2OC/C=C/c2ccc(C(F)(F)F)cc2)C1"
  pIC50: "< 4.52"
- compound: "O=C(O)CCCN1CCc2cccc(OCCc3ccccc3)c2CC1"
  pIC50: "< 5.00"
- compound: "O=C(O)CCCN1CCc2c(cccc2OCCc2ccc3ccccc3c2)C1 [Example 18 (1), trifluoroacetate]"
  pIC50: "< 4.52"
- compound: "O=C(O)CCCN1CCc2cccc(OCCCC3CCOCC3)c2CC1"
  pIC50: "< 5.00"
- compound: "O=C(O)CCCN1CCc2c(cccc2OC/C=C/c2ccc(OC(F)F)cc2)C1"
  pIC50: "< 4.52"
- compound: "O=C(O)CCCN1CCc2cccc(OC/C=C/c3ccc(C(F)(F)F)cc3)c2C1 [Example 18 (2), trifluoroacetate]"
  pIC50: "< 4.52"
- compound: "O=C(O)CC1(CN2CCc3cccc(OCCc4cccc5ccccc45)c3CC2)CC1"
  pIC50: "< 5.00"
- compound: "CN(CCC(=O)O)C1CCc2cccc(OC/C=C/c3ccc(C(F)(F)F)cc3)c2C1 (centres unmarked)"
  pIC50: "< 4.52"
- compound: "O=C(O)CCCN1CCc2cccc(OCCC3Cc4ccccc43)c2CC1 (centres unmarked)"
  pIC50: "< 5.00"

---

Structures can show the parent of a compound that is named as a salt.
human S1P5 (EDG-8) (Homo sapiens (Human)) measurements of IC50, listed per entry.
Sequence (Q9H228 whole entry): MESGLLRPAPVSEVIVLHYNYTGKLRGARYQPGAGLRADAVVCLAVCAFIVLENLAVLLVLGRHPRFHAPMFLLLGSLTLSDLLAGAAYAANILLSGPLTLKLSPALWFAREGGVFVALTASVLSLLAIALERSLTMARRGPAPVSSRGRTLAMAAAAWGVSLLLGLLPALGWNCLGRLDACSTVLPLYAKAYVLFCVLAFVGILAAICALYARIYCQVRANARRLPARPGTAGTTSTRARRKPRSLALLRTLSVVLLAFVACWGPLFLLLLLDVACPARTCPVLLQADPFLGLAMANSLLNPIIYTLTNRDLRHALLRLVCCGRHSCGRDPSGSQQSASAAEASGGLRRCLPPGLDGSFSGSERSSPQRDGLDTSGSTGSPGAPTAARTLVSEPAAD
measure: IC50

- molecule: "O=C(O)CCCN1CCc2cccc(OCCCCCc3ccccc3)c2CC1"
  result: "1 to 100 nM"
- molecule: "O=C(O)CCCN1CCc2cccc(OCCC3Cc4ccccc43)c2CC1 (stereo not drawn)"
  result: "100 to 1000 nM"
- molecule: "O=C(O)C1CN(C2CCc3cccc(OCCCc4ccccc4)c3C2)C1 (stereo not drawn)"
  result: "1 to 100 nM"
- molecule: "O=C(O)CCCN1CCc2c(cccc2OCCc2ccc3ccccc3c2)C1 [Example 18 (1), trifluoroacetate]"
  result: "1000 to 3000 nM"
- molecule: "O=C(O)C1CC(N2CCc3cccc(OCCc4cccc5ccccc45)c3CC2)C1 (single isomer, unassigned)"
  result: "1 to 100 nM"
- molecule: "O=C(O)CCCN1CCc2cccc(OC/C=C/c3ccc(C(F)(F)F)cc3)c2C1 [Example 18 (2), trifluoroacetate]"
  result: "1000 to 3000 nM"
- molecule: "O=C(O)C1CCN(C2CCc3c(cccc3OC/C=C/c3ccc(C(F)(F)F)cc3)C2)C1 (stereo not drawn)"
  result: "1000 to 3000 nM"
- molecule: "CN(CCC(=O)O)C1CCc2cccc(OC/C=C/c3ccc(C(F)(F)F)cc3)c2C1 (stereo not drawn)"
  result: "100 to 1000 nM"
- molecule: "CC(C)c1ccc(/C=C/COc2cccc3c2CCN(CCCC(=O)O)C3)cc1"
  result: "1000 to 3000 nM"
- molecule: "O=C(O)CCCN1CCc2cccc(OCCc3cccc4ccccc34)c2CC1"
  result: "1 to 100 nM"
- molecule: "O=C(O)CCCCN1CCCc2c(cccc2OC/C=C/c2ccc(C(F)(F)F)cc2)C1"
  result: "1000 to 3000 nM"
- molecule: "O=C(O)C1CN(C2CCc3cccc(OCCc4cccc5ccccc45)c3C2)C1 (single isomer, unassigned; (-))"
  result: "1 to 100 nM"
